A collection of sequences and their measured shrunken log2 fold change
Tested on: Escherichia coli TOP10
Measurement protocol: shrunken log2 fold change of peptide-encoding DNA abundance (4.5 h post-induction vs induction); higher = less antimicrobial activity (less host growth inhibition)
Recorded conditions: time post-induction: 4.5 h; library: site-saturation at positions 5, 18, 19, 20
Measurement type: shrunken log2 fold change

>>> readout_value("RRIRERPPRLPRPRPRPYHQPRP")
-0.416
>>> readout_value("RRIRSRPPRLPRPRPRPYIYPRP")
-0.778
>>> readout_value("RRIRMRPPRLPRPRPRPEDCPRP")
0.0737
>>> readout_value("RRIRFRPPRLPRPRPRPAARPRP")
0.192
>>> readout_value("RRIRMRPPRLPRPRPRPFCWPRP")
0.421
>>> readout_value("RRIRTRPPRLPRPRPRPRRMPRP")
0.15
>>> readout_value("RRIRCRPPRLPRPRPRPIKCPRP")
-0.165
>>> readout_value("RRIRWRPPRLPRPRPRPEIAPRP")
0.355
>>> readout_value("RRIRCRPPRLPRPRPRPRILPRP")
-0.567
>>> readout_value("RRIRLRPPRLPRPRPRPQCWPRP")
-0.0159
>>> readout_value("RRIRHRPPRLPRPRPRPMTDPRP")
-0.898
>>> readout_value("RRIRKRPPRLPRPRPRPVCWPRP")
0.897
>>> readout_value("RRIRYRPPRLPRPRPRPVYCPRP")
-0.416
>>> readout_value("RRIRNRPPRLPRPRPRPYSSPRP")
-0.027
>>> readout_value("RRIRIRPPRLPRPRPRPGGQPRP")
0.112
>>> readout_value("RRIRCRPPRLPRPRPRPLQKPRP")
-0.0859
>>> readout_value("RRIRNRPPRLPRPRPRPIFHPRP")
-0.358
>>> readout_value("RRIRTRPPRLPRPRPRPNFNPRP")
-0.356
>>> readout_value("RRIRTRPPRLPRPRPRPQKMPRP")
0.176
>>> readout_value("RRIRWRPPRLPRPRPRPFEVPRP")
0.0389
>>> readout_value("RRIRARPPRLPRPRPRPLYKPRP")
-0.362
>>> readout_value("RRIRCRPPRLPRPRPRPFRMPRP")
-0.113
>>> readout_value("RRIRVRPPRLPRPRPRPHQVPRP")
-0.111
>>> readout_value("RRIRVRPPRLPRPRPRPNFVPRP")
-0.491
>>> readout_value("RRIRHRPPRLPRPRPRPPAKPRP")
0.539
>>> readout_value("RRIRVRPPRLPRPRPRPPTYPRP")
-0.432
>>> readout_value("RRIRKRPPRLPRPRPRPWNYPRP")
-0.154
>>> readout_value("RRIRSRPPRLPRPRPRPSGHPRP")
-0.433
>>> readout_value("RRIRGRPPRLPRPRPRPKVFPRP")
-0.00639
>>> readout_value("RRIRTRPPRLPRPRPRPFWRPRP")
0.112
>>> readout_value("RRIRARPPRLPRPRPRPAFFPRP")
0.479
>>> readout_value("RRIRFRPPRLPRPRPRPEKNPRP")
-0.0204

----------
Tested on: Escherichia coli TOP10;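 note: peptides expressed intracellularly from a pBAD plasmid library in pooled LB shake-flask culture, induced with 0.3% L-arabinose, DNA abundance read by NGS, three biological replicates, DESeq2 with apeglm shrinkage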
Measurement protocol: shrunken log2 fold change of peptide-encoding DNA abundance (4.5 h post-induction vs induction); higher = less antimicrobial activity (less host growth inhibition)
Recorded conditions: time post-induction: 4.5 h; library: site-saturation at positions 5, 18, 19, 20
Parameter threshold = -0.03. Response is YES when shrunken log2 fold change meets or exceeds it, else NO.

>>> assigned_label("RRIRNRPPRLPRPRPRPQWNPRP")
"NO"
>>> assigned_label("RRIRTRPPRLPRPRPRPVQMPRP")
"YES"
>>> assigned_label("RRIRVRPPRLPRPRPRPASWPRP")
"YES"
>>> assigned_label("RRIRQRPPRLPRPRPRPHTTPRP")
"YES"
>>> assigned_label("RRIRSRPPRLPRPRPRPFFFPRP")
"YES"
>>> assigned_label("RRIRGRPPRLPRPRPRPYCTPRP")
"YES"
>>> assigned_label("RRIRLRPPRLPRPRPRPLRAPRP")
"YES"
>>> assigned_label("RRIRHRPPRLPRPRPRPQKLPRP")
"NO"
>>> assigned_label("RRIRYRPPRLPRPRPRPYQGPRP")
"YES"
>>> assigned_label("RRIRLRPPRLPRPRPRPSKLPRP")
"NO"
>>> assigned_label("RRIRRRPPRLPRPRPRPAKTPRP")
"YES"
>>> assigned_label("RRIRARPPRLPRPRPRPEWRPRP")
"YES"
>>> assigned_label("RRIRARPPRLPRPRPRPRSTPRP")
"YES"
>>> assigned_label("RRIRARPPRLPRPRPRPKRNPRP")
"YES"
>>> assigned_label("RRIRHRPPRLPRPRPRPSPIPRP")
"NO"
>>> assigned_label("RRIRCRPPRLPRPRPRPRLVPRP")
"YES"
>>> assigned_label("RRIRFRPPRLPRPRPRPREHPRP")
"YES"
>>> assigned_label("RRIRYRPPRLPRPRPRPSASPRP")
"NO"
>>> assigned_label("RRIRLRPPRLPRPRPRPDKSPRP")
"NO"
>>> assigned_label("RRIRVRPPRLPRPRPRPFQNPRP")
"YES"
>>> assigned_label("RRIRYRPPRLPRPRPRPRHIPRP")
"NO"
>>> assigned_label("RRIRLRPPRLPRPRPRPVQEPRP")
"NO"
>>> assigned_label("RRIRQRPPRLPRPRPRPFNTPRP")
"NO"
>>> assigned_label("RRIRARPPRLPRPRPRPQAHPRP")
"YES"
>>> assigned_label("RRIRMRPPRLPRPRPRPVCSPRP")
"NO"
>>> assigned_label("RRIRNRPPRLPRPRPRPQTQPRP")
"YES"
>>> assigned_label("RRIRMRPPRLPRPRPRPCLRPRP")
"NO"
>>> assigned_label("RRIRCRPPRLPRPRPRPFDEPRP")
"NO"
>>> assigned_label("RRIRVRPPRLPRPRPRPNHFPRP")
"NO"
>>> assigned_label("RRIRKRPPRLPRPRPRPHSMPRP")
"YES"
>>> assigned_label("RRIRERPPRLPRPRPRPPANPRP")
"YES"
>>> assigned_label("RRIRSRPPRLPRPRPRPWKFPRP")
"NO"
>>> assigned_label("RRIRCRPPRLPRPRPRPVKNPRP")
"NO"
>>> assigned_label("RRIRLRPPRLPRPRPRPNLVPRP")
"NO"
>>> assigned_label("RRIRNRPPRLPRPRPRPWTAPRP")
"NO"
>>> assigned_label("RRIRLRPPRLPRPRPRPLERPRP")
"YES"
>>> assigned_label("RRIRERPPRLPRPRPRPKKCPRP")
"NO"
>>> assigned_label("RRIRDRPPRLPRPRPRPPCAPRP")
"YES"
>>> assigned_label("RRIRCRPPRLPRPRPRPEIMPRP")
"NO"
>>> assigned_label("RRIRWRPPRLPRPRPRPFLGPRP")
"NO"
>>> assigned_label("RRIRNRPPRLPRPRPRPTTQPRP")
"NO"
>>> assigned_label("RRIRPRPPRLPRPRPRPDKTPRP")
"YES"
>>> assigned_label("RRIRNRPPRLPRPRPRPLEMPRP")
"NO"
>>> assigned_label("RRIRKRPPRLPRPRPRPNEQPRP")
"YES"
>>> assigned_label("RRIRGRPPRLPRPRPRPGHAPRP")
"YES"
>>> assigned_label("RRIRWRPPRLPRPRPRPQNFPRP")
"YES"
>>> assigned_label("RRIRHRPPRLPRPRPRPRRAPRP")
"YES"
>>> assigned_label("RRIRPRPPRLPRPRPRPRYYPRP")
"NO"
>>> assigned_label("RRIRPRPPRLPRPRPRPVHKPRP")
"NO"
>>> assigned_label("RRIRRRPPRLPRPRPRPMATPRP")
"YES"
>>> assigned_label("RRIRWRPPRLPRPRPRPMEYPRP")
"YES"
>>> assigned_label("RRIRHRPPRLPRPRPRPRMTPRP")
"YES"
>>> assigned_label("RRIRDRPPRLPRPRPRPPAAPRP")
"YES"
>>> assigned_label("RRIRIRPPRLPRPRPRPTWVPRP")
"YES"
>>> assigned_label("RRIRRRPPRLPRPRPRPVCGPRP")
"YES"
>>> assigned_label("RRIRRRPPRLPRPRPRPEEQPRP")
"YES"
>>> assigned_label("RRIRNRPPRLPRPRPRPRLQPRP")
"YES"
>>> assigned_label("RRIRDRPPRLPRPRPRPLDKPRP")
"NO"
>>> assigned_label("RRIRDRPPRLPRPRPRPFACPRP")
"YES"
>>> assigned_label("RRIRMRPPRLPRPRPRPNFEPRP")
"YES"
>>> assigned_label("RRIRNRPPRLPRPRPRPHQDPRP")
"NO"
>>> assigned_label("RRIRQRPPRLPRPRPRPHLFPRP")
"YES"
